settings: in ethyl acetate, 303.2 K

{"Smiles repr": "Cc1cc(C)c(C(=O)P(=O)(C(=O)c2c(C)cc(C)cc2C)c2ccccc2)c(C)c1", "solubility (mole fraction)": 0.0259}

---

conditions: in n-hexane, 295.4 K

{"Smiles repr": "Cc1cc(C)c(C(=O)P(=O)(C(=O)c2c(C)cc(C)cc2C)c2ccccc2)c(C)c1", "solubility (mole fraction)": 0.00151}

---

settings: in n-hexane, 328.1 K

{"Smiles repr": "Cc1cc(C)c(C(=O)P(=O)(C(=O)c2c(C)cc(C)cc2C)c2ccccc2)c(C)c1", "solubility (mole fraction)": 0.00525}

---

conditions: in isopropanol, 295.4 K
Measurement type: solubility (mole fraction)

{"Smiles repr": "Cc1cc(C)c(C(=O)P(=O)(C(=O)c2c(C)cc(C)cc2C)c2ccccc2)c(C)c1", "Measurement type": "solubility (mole fraction)", "Quantitative result": 0.00278}
